Biological target: Ubiquitin carboxyl-terminal hydrolase 28 (Homo sapiens) (UniProt Q96RU2)
Sequence (Q96RU2 whole entry, looked up): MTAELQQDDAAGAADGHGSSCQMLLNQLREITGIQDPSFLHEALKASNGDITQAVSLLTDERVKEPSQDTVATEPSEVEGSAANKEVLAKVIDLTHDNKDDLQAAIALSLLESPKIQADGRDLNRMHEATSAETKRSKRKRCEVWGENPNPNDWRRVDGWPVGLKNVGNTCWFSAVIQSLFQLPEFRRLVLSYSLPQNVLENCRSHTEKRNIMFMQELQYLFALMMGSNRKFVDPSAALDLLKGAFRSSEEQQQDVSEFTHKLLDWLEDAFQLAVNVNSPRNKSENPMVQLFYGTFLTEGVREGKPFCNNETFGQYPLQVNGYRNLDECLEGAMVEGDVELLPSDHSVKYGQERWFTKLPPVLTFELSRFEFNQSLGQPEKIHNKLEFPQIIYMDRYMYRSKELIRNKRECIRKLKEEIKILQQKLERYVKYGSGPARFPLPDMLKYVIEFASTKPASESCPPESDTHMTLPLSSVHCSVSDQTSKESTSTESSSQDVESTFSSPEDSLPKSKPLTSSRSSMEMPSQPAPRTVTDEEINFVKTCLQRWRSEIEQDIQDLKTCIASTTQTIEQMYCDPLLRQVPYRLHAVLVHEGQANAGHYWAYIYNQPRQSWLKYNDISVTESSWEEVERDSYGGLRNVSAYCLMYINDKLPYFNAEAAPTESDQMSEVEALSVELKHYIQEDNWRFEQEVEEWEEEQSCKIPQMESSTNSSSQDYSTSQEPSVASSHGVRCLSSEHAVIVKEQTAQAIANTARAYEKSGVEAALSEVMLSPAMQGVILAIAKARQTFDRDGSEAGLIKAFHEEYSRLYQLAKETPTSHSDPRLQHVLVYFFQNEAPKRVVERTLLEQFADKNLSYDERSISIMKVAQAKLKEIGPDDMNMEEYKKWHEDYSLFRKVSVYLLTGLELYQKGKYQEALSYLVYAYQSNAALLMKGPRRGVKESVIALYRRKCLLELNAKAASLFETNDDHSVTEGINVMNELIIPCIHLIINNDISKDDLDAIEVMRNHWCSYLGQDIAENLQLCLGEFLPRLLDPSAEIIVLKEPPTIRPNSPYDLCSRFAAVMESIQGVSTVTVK
Assay: Concentration-response biochemical assay confirming initial hits as inhibitors of ubiquitin-specific protease 28 (AID 1645866)
Details: purified USP28, ubiquitin-rhodamine fluorescence, 30 min
Active and inactive are the calls of the source.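 Rule for the calls: active = in confirmatory dose-response testing, peak deubiquitinase inhibition of 30% or more; inactive = the rest.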
Field 'call' accepts YES (active), NO (inactive)

Look over these answered cases.
# compound, system-tested, group-label
data = [
    ("Cc1cc(-c2ccnc3c(C#N)cnn23)c(C)s1", "Ubiquitin carboxyl-terminal hydrolase 28 (Homo sapiens) (UniProt Q96RU2)", "YES"),
    ("COc1ccc(-n2ccn3c(CCC(=O)NCc4ccc(F)cc4)nnc3c2=O)cc1", "Ubiquitin carboxyl-terminal hydrolase 28 (Homo sapiens) (UniProt Q96RU2)", "YES"),
    ("CCC(C)(C)C1CCC2(CC1)N=C(N)Nc1nc3ccccc3n12 (stereo not given)", "Ubiquitin carboxyl-terminal hydrolase 28 (Homo sapiens) (UniProt Q96RU2)", "YES"),
    ("Cc1cc(C(=O)N2CCOC3(CC=CCN(CCc4ccccc4)C3=O)C2)n2nccc2n1 (stereo not given)", "Ubiquitin carboxyl-terminal hydrolase 28 (Homo sapiens) (UniProt Q96RU2)", "NO"),
]

Give the logged outcome of this assay for the following compound: "O=C(Cn1c(NCc2ccccc2)nc2ccccc21)NCC(F)(F)F"
YES

Given "O=C(COc1ccc2ccccc2c1)Nc1cccc2ccccc12" , state the outcome it received in this test.
YES

Please share the test call associated with "O=C(CSc1nnc(Cn2cnc3ccccc32)o1)Nc1ccc([N+](=O)[O-])cc1" .
YES

# fetch the recorded call for "Cc1ccc(Nc2nc(Nc3cccc(Cl)c3)nc3nccnc23)cc1" here
NO

Assay result, entry O=S(=O)(c1ccccc1)N1CCN2Cc3ccccc3N(Cc3ccccc3)CC2C1 (stereo not given) — outcome?
NO

Please share the test call associated with "CCOc1ccc(-c2ccc3nnc(SCC(=O)Nc4cccc(C(C)=O)c4)n3n2)cc1" .
YES

---

Biological target: UniProtKB Q96RU2
Assay: Concentration-response biochemical assay confirming initial hits as inhibitors of ubiquitin-specific protease 28 (AID 1645866)
Settings: purified USP28, ubiquitin-rhodamine fluorescence, 30 min
Calls of active or inactive are those of the source.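 How the source made its calls: active means in confirmatory dose-response testing, peak deubiquitinase inhibition of 30% or more; inactive means the rest.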
Choose one outcome from this list and give only that: active, inactive

Known results for molecules:
# molecule, group-label
records = [
    ("C/C=C(\\Cl)C1=CC(=O)[C@]23C[C@H]2[C@@]2(C)CO[C@@]1(O)[C@@]3(O)O2", "inactive"),
    ("CC(=O)N1CCc2cc(CNC(=O)Nc3cc(C)ccc3C)ccc21", "active"),
    ("O=C(COc1ncnc2ccccc12)Nc1ccc2c(c1)OC1(CCCC1)O2", "active"),
    ("CCC/C=C\\C#CC/C=C\\CCCCCCCC(=O)O", "active"),
    ("O=C(COc1nsnc1N1CCOCC1)Nc1ccccc1F", "inactive"),
    ("Cc1ccc(-c2cn(CC(=O)N3CCN(c4ccccn4)CC3)c(=O)o2)cc1", "active"),
]

So what was the verdict on "Nc1ccccc1SCc1noc(-c2cccs2)n1" in this test?
active

Status in this test for "Cc1ccc(NC(=O)c2ccn(COc3ccc(F)cc3)n2)nc1" ?
active

Please indicate how the test categorized "Cc1cccc(NC(=O)Cn2c(-c3cnccn3)nc(C)c(C)c2=O)c1C" .
inactive

Can you look up the reported call for "Cc1ccccc1-c1noc(-c2ccccc2OCC(=O)NC(C)C)n1" for me?
inactive

Test call, this molecule: O=S(=O)(c1ccc(F)cc1)N1CCCC1c1ccnc(Nc2cnccn2)n1 (stereo not drawn)
inactive

Recorded call for "Cc1ccc(CNC(=O)Cn2cnc3c(cnn3-c3cccc(Cl)c3)c2=O)cc1" ?
active
